test: The drug is tested on Enterobacter cancerogenus strain: ATCC35316 for biotransformation. The drug concentrations were measured before and after a 12-h incubation by liquid-chromatography-coupled mass spectrometry (LC–MS); settings: 2 µM

| Compound | Bacterial Biotransformation |
| --- | --- |
| CC(=O)OCC(=O)[C@@]1(O)[C@@H](C)C[C@H]2[C@@H]3CCC4=CC(=O)C=C[C@]4(C)[C@@]3(F)[C@@H](O)C[C@@]21C [BETAMETHASONE ACETATE] | Compound NOT metabolized |
| CN1CCOC(c2ccccc2)c2ccccc2C1 (stereo not given) [NEFOPAM] | Compound NOT metabolized |
| C[C@]12C=CC(=O)C=C1CC[C@@H]1[C@@H]2C(=O)C[C@@]2(C)[C@H]1CC[C@]2(O)C(=O)CO [PREDNISONE] | Compound NOT metabolized |
| C[C@@H]1C[C@H]2[C@@H]3CCC4=CC(=O)C=C[C@]4(C)[C@@]3(F)[C@@H](O)C[C@]2(C)[C@@]1(O)C(=O)CO [DEXAMETHASONE] | Compound NOT metabolized |
| OC(c1cc(C(F)(F)F)nc2c(C(F)(F)F)cccc12)C1CCCCN1 (stereo not given) [MEFLOQUINE] | Compound NOT metabolized |
| O=C1NCC2(CCN(CCc3ccccc3)CC2)O1 [FENSPIRIDE] | Compound NOT metabolized |
| CCCCCCOC(=O)/N=C(/N)c1ccc(NCc2nc3cc(C(=O)N(CCC(=O)OCC)c4ccccn4)ccc3n2C)cc1.CS(=O)(=O)O [DABIGATRAN ETEXILATE MESYLATE] | Compound NOT metabolized |
| CCOc1ccccc1OCCN[C@H](C)Cc1ccc(OC)c(S(N)(=O)=O)c1.Cl [TAMSULOSIN HYDROCHLORIDE] | Compound NOT metabolized |
| CCN(CC)CCCC(C)Nc1c2ccc(Cl)cc2nc2ccc(OC)cc12 (stereo not given) [QUINACRINE] | Compound NOT metabolized |
| CNS(=O)(=O)Cc1ccc2[nH]cc(CCN(C)C)c2c1.O=C(O)CCC(=O)O [SUMATRIPTAN SUCCINATE] | Compound metabolized |
| CC(=O)OCC(=O)[C@@]12N=C(C)O[C@@H]1C[C@H]1[C@@H]3CCC4=CC(=O)C=C[C@]4(C)[C@H]3[C@@H](O)C[C@@]12C [DEFLAZACORT] | Compound metabolized |
| CCN(CC)CCOC(=O)C1(C2CCCCC2)CCCCC1 [DICYCLOMINE] | Compound NOT metabolized |
| CCS(=O)(=O)CCn1c([N+](=O)[O-])cnc1C [TINIDAZOLE] | Compound NOT metabolized |
| CC[C@H](C)C(=O)O[C@H]1C[C@@H](C)C=C2C=C[C@H](C)[C@H](CC[C@@H]3C[C@@H](O)CC(=O)O3)[C@H]21 [LOVASTATIN] | Compound metabolized |
| COc1ccccc1OCC(O)CN1CCN(CC(=O)Nc2c(C)cccc2C)CC1 (stereo not given) [RANOLAZINE] | Compound NOT metabolized |

Cited source for all entries: ChEMBL document CHEMBL5303573
